# Test system: DU-145
# test-name: NCI tumour cell line growth inhibition, 48 h
The source made the active and inactive calls. No stated cut-off is given here; in the data, active = GI50 up to about 1.1 µM and inactive = higher.
Lab note: assign the record to one of active, inactive

Ask: Would you mind telling me which call this test gave O=C(/C=C/c1ccc2c(c1)OCO2)NCCc1ccco1 ?
Reply: inactive

Ask: Next record, please: CSc1ncc2c(n1)-c1ccccc1OC2N1CCOCC1 (stereo not given)
Reply: inactive

Ask: Next record, please: COc1cc2c(NCCN(C)C)nc3c4cc5c(cc4ccc3c2cc1OC)OCO5
Reply: inactive

Ask: Next record, please: CCCCN(CCCC)C1=Nc2ccccc2-n2c(nnc2C(=O)OCC)C1
Reply: inactive

Ask: Next record, please: CC(=O)NC1C(OCc2ccccc2)OC(CO)C(O)C1OCC(=O)N[C@@H](C)C(=O)N[C@H](CCC(=O)NCCCCNc1c2ccccc2nc2cccc([N+](=O)[O-])c12)C(N)=O (stereo not given in full)
Reply: inactive

Ask: Next record, please: O=[N+]([O-])c1cccc2nc3ccccc3c(NCCCN3CCCCC3)c12
Reply: active

Ask: Next record, please: CC(=O)Oc1ccc(-c2cc3ccccc3oc2=O)cc1
Reply: inactive

Ask: Next record, please: O=C(O)C1CCCCC1C(=O)Nn1cnnc1 (stereo not given)
Reply: inactive

Ask: Next record, please: CCOC(=O)C(NC(=O)c1ccccc1)(Nc1ccc(S(=O)(=O)Nc2cc(C)on2)cc1)C(F)(F)F (stereo not given)
Reply: inactive

Ask: Next record, please: N=c1oc2ccc(Cl)cc2cc1C(N)=O
Reply: inactive

====

# Test system: HL-60
# test-name: NCI tumour cell line growth inhibition, 48 h
The source made the active and inactive calls. Rule as the data show it: active = GI50 up to about 1.1 µM and inactive = higher.
Provide the recorded GI50 for the entries that follow.

Ask: Quick one: GI50 for COc1ccc(C2=Nc3ccccc3N=C(SC)C2)cc1 ?
Reply: 16.3 µM (inactive)

Ask: Next record, please: CC(C)(C)OC(=O)NC(CSCc1ccc(C(=O)c2ccccc2)cc1)C(=O)O (configuration not stated)
Reply: > 100 µM (inactive)

Ask: Next record, please: C/C(=N\NC(N)=O)C(CN1CCCCC1)C(c1ccccc1)c1c(O)c2ccccc2oc1=O (configuration not stated)
Reply: > 100 µM (inactive)

Ask: Next record, please: CC(=O)O[C@H]1C(=O)[C@@]2(C)[C@H]([C@H](OC(=O)c3ccc([N+](=O)[O-])cc3)[C@]3(O)C[C@H](OC(=O)[C@H](O)[C@@H](NC(=O)c4ccccc4)c4ccccc4)C(C)=C1C3(C)C)[C@]1(OC(C)=O)CO[C@@H]1C[C@@H]2O
Reply: > 25 µM (inactive)

Ask: Next record, please: COC(=O)c1cc2c3c(ccc2[nH]1)N(C(=O)c1cc2cc(OC)c(OC)c(OC)c2[nH]1)CC3CCl (configuration not stated)
Reply: 1.48 µM (inactive)

Ask: Next record, please: C/N=C/N(C)c1c2ccccc2nc2ccccc12
Reply: > 100 µM (inactive)

Ask: Next record, please: CN(C)CCNC1=C(Cl)C(=O)c2c(O)ccc(O)c2C1=O
Reply: 2.38 µM (inactive)

Ask: Next record, please: OCC(O)C(O)C(O)c1nn(-c2ccccc2)c2nc3cc(Cl)c(Cl)cc3nc12 (configuration not stated)
Reply: 27 µM (inactive)

Ask: Next record, please: Cc1ccc(NC(=O)CC/C(CC(=O)C(C)(C)C)=N/NC(=O)C[N+](C)(C)C)cc1C
Reply: > 100 µM (inactive)

Ask: Next record, please: CCCCCCCCCCCCCCCCNCCCN(C)CCCN
Reply: 18.6 µM (inactive)

Ask: Next record, please: CCCCCCCCC(O)C#CC(N)=O (configuration not stated)
Reply: 10.8 µM (inactive)

Ask: Next record, please: CCOC1NC(=O)Oc2ccccc21 (configuration not stated)
Reply: > 100 µM (inactive)

Ask: Next record, please: CCCCN(CCCC)C1=Nc2ccccc2-n2c(nnc2C(=O)OCC)C1
Reply: 15.6 µM (inactive)

Ask: Next record, please: O=S(=O)(O)SCCNCCCCCC1CCCCC1
Reply: 7.29 µM (inactive)

Ask: Next record, please: Nc1nc(Cl)c2ncn(Cc3ccccc3CCl)c2n1
Reply: 3.72 µM (inactive)

Ask: Next record, please: O=C1C2C3C=CC(C2C(=O)N1CN1CCSCC1)C1C2C(=O)N(CN4CCSCC4)C(=O)C2C31 (configuration not stated)
Reply: 29.9 µM (inactive)

Ask: Next record, please: O=C(c1ccc(Cl)cc1)C(O)c1ccc(Cl)cc1 (configuration not stated)
Reply: 32.5 µM (inactive)

Ask: Next record, please: COc1cc2c(NCCN(C)C)nc3c4cc5c(cc4ccc3c2cc1OC)OCO5
Reply: 4.23 µM (inactive)

Ask: Next record, please: COc1cccc(-c2cc(C(=O)Nc3ccc(Cl)cc3)nc(N)n2)c1
Reply: 32.7 µM (inactive)

Ask: Next record, please: CN(C(=O)OC(C)(C)C)[C@H]1CCCC[C@H]1N1CCCC1
Reply: 5.81 µM (inactive)

Ask: Next record, please: C[C@]12CCC(=O)C(O)=C1CC[C@@H]1C2CC[C@]2(C)Nc3c(cnn3-c3ccccc3)CC12 (some centres not stated)
Reply: 23.8 µM (inactive)

Ask: Next record, please: CC1NOC(=O)C1/N=N/c1ccc(Cl)cc1Cl (configuration not stated)
Reply: 16 µM (inactive)

====

# System: OVCAR-8
# test-name: NCI tumour cell line growth inhibition, 48 h
Active and inactive are the calls of the source. Cut-off read from the data, not from the text of the source: active = GI50 up to about 1.1 µM and inactive = higher.
Lab note: assign the record to one of active, inactive

Ask: Would you mind telling me which call this test gave COc1ccc(N2C(=O)C3c4[nH]c5ccc(OC)cc5c4C4CCC(c5ccccc5)CC4C3C2=O)cc1 (centres undefined) ?
Reply: inactive

Ask: Next record, please: O=C(O)CCc1ccc(-c2ccccc2)[nH]1
Reply: inactive

Ask: Next record, please: CC1=C(C(=O)OCCO[N+](=O)[O-])C(c2ccccc2C(F)(F)F)C(C(=O)OC(C)C)=C(C)N1 (centres undefined)
Reply: inactive

Ask: Next record, please: CC1(C=O)CCC23COC4(CCC5C6(C)CCC(OC7OCC(OC8OC(CO)C(O)C(OC9OC(CO)C(O)C(O)C9O)C8OC8OCC(O)C(O)C8O)C(O)C7OC7OC(CO)C(O)C(O)C7O)C(C)(C)C6CCC5(C)C4(C)CC2O)C3C1 (centres undefined)
Reply: active

Ask: Next record, please: COc1ccc(-c2cc(Cc3cccs3)c(=O)[nH]n2)cc1
Reply: inactive

Ask: Next record, please: C/C(=N\NC(N)=O)C(CN(C)C)C(c1ccccc1)c1c(O)c2ccccc2oc1=O (centres undefined)
Reply: inactive

Ask: Next record, please: COC(=O)/C(=C\c1ccc(N(CCC#N)CCC#N)cc1)NC(=O)c1cc([N+](=O)[O-])ccc1Cl
Reply: inactive

Ask: Next record, please: CC(=O)C1C(c2ccccc2)C2(C)OC(=O)C(C#N)C12C (centres undefined)
Reply: inactive

Ask: Next record, please: CC(=O)Oc1c(C)cc2c(c1C)C(C)CN2C(C)=O (centres undefined)
Reply: inactive

====

# Test system: OVCAR-3
# test-name: NCI tumour cell line growth inhibition, 48 h
Calls of active or inactive are those of the source. Cut-off read from the data, not from the text of the source: active = GI50 up to about 1.1 µM and inactive = higher.
Provide the recorded GI50 for the entries that follow.

Ask: Quick one: GI50 for Clc1ccc(-c2nn3c(COc4ccc(OCc5nnc6sc(-c7ccc(Cl)cc7)nn56)c(Cl)c4)nnc3s2)cc1 ?
Reply: 45.4 µM (inactive)

Ask: Next record, please: CCOC(=O)c1sc2nc(SC)nc3c2c1NCN3C1CC1
Reply: > 100 µM (inactive)

Ask: Next record, please: CN1CCC2(CC1)C(=O)N(N1CCCCCC1)C(=O)N2c1ccccc1
Reply: > 100 µM (inactive)

Ask: Next record, please: CC(=O)N1CCN(C23OC4(N5CCN(C(C)=O)CC5)C5C6CC(C7C6C4C72)C53)CC1 (stereo not given)
Reply: > 100 µM (inactive)

Ask: Next record, please: CSc1nc(C)c(Br)c(=O)n1C1OC(COC(C)=O)C(OC(C)=O)C(OC(C)=O)C1OC(C)=O (stereo not given)
Reply: > 100 µM (inactive)

====

# Tested on: COLO 205
# test-name: NCI tumour cell line growth inhibition, 48 h
The source made the active and inactive calls. Rule as the data show it: active = GI50 up to about 1.1 µM and inactive = higher.
Lab note: assign the record to one of class 1 (active), class 0 (inactive)

Ask: Would you mind telling me which call this test gave O=C(Nc1ccn(C2CC(O)C(CO)O2)c(=O)n1)c1ccccc1 (centres undefined) ?
Reply: class 0

Ask: Next record, please: COc1ccc2c(c1)-c1nc(=S)n(CCN(C)C)c3ccc([N+](=O)[O-])c(c13)N2
Reply: class 1

Ask: Next record, please: CC1(C=O)CCC23COC4(CCC5C6(C)CCC(OC7OCC(OC8OC(CO)C(O)C(OC9OC(CO)C(O)C(O)C9O)C8OC8OCC(O)C(O)C8O)C(O)C7OC7OC(CO)C(O)C(O)C7O)C(C)(C)C6CCC5(C)C4(C)CC2O)C3C1 (centres undefined)
Reply: class 0

Ask: Next record, please: CNC(=O)c1ccccc1-[s+]1c2ccccc2c(=O)n1C (centres undefined)
Reply: class 0

All figures here come from ChEMBL document CHEMBL1201862.
